Test system: DLD-1
METHOD: NCI tumour cell line growth inhibition, 48 h
Activity calls are given as the source filed them. Rule as the data show it: active = GI50 up to about 1.1 µM and inactive = higher.
MEASURED ATTRIBUTE: GI50

query: Query GI50 for O=C1C=C2SC3C[C@@]24CC1[N+]1=c2c4c(c(O)c4c2=C(C=N4)CC1)N3
result: 2.07 µM (inactive)

query: Hello, please tell me recorded GI50 for this one: COc1ccc(-c2c(C3=NCCCN3)nnn2-c2ccc([N+](=O)[O-])cc2)cc1
result: > 100 µM (inactive)

query: For the molecule COc1cc2c(cc1OC)C(C(c1ccccc1)c1ccccc1)N(C)CC2 (stereo unspecified) , give its measured GI50 value.
result: > 78.9 µM (inactive)

query: Provide only the value of recorded GI50 for CC(C)(C)c1cc(C(=O)O)c2c(c1)C(=O)OC2(c1ccccc1)c1ccccc1C(=O)O (stereo unspecified)
result: > 100 µM (inactive)

query: // Input: Cn1c(O)c(C(=O)Nc2ccc([N+](=O)[O-])cc2)c(=O)n(C)c1=S . Output its GI50 only.
result: 3.7 µM (inactive)

query: Please look at this molecule and report its GI50: COc1ccc2c(c1)[n+]([O-])c(-c1ccccc1Cl)c(N)[n+]2[O-]
result: > 100 µM (inactive)

Ref: ChEMBL document CHEMBL1201862
